Molecular target: human mGluR5a receptor (Homo sapiens, UniProt P41594)
Construct: cDNA subcloned into pcDNA3.1(-)
Sequence (P41594 21-1180 isoform P41594-2 limits assumed): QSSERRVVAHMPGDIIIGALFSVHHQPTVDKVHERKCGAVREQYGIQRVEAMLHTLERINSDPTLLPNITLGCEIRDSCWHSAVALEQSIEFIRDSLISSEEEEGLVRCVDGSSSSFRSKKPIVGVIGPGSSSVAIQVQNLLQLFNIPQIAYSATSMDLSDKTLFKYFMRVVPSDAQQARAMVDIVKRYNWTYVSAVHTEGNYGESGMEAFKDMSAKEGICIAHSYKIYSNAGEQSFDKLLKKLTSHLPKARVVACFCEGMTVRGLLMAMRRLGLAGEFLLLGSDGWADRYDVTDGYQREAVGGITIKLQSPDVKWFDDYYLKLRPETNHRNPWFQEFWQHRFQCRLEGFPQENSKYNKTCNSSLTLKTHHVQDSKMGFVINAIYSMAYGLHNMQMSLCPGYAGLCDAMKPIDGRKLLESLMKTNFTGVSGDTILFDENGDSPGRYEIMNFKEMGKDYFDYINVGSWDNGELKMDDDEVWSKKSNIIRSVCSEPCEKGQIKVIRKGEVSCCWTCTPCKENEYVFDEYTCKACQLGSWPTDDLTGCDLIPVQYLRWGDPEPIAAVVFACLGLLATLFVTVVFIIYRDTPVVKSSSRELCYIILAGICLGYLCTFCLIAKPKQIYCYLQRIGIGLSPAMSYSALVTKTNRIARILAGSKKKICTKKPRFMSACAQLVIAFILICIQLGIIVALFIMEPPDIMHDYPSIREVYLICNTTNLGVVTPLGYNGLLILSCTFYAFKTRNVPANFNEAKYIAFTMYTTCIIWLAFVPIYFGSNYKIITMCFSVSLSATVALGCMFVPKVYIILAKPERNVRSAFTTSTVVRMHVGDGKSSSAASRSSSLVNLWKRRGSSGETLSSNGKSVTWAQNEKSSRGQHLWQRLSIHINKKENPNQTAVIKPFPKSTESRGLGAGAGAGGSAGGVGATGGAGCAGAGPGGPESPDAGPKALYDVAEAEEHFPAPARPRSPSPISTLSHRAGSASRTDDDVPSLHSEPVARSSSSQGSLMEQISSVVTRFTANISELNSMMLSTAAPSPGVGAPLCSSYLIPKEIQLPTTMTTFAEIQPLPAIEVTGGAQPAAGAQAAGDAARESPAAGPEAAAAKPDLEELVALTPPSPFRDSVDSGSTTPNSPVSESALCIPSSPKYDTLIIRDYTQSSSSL
Assay: Cell-based functional Ca2+ mobilization assay (FDSS), potentiation of glutamate EC20 response
Settings: maximum % effect in concentration-response curve, as percent of response to maximally effective glutamate
test-readout: Emax (%)

O=C1c2cc(COc3ccccc3)nn2CCN1c1cc(F)cc2cccnc12 :: 67
O=C1c2cc(COc3ccncc3)nn2CCN1c1ccc(F)cc1 :: 68
O=C1c2cc(COc3ccccc3)nn2CCN1CC1CC1(F)F (stereo not drawn) :: 60
COc1nccc(N2CCn3nc(COc4ccccn4)cc3C2=O)n1 :: 50
O=C1c2cc(COc3ccccc3)nn2CCN1c1ccncn1 :: 71
O=C1c2cc(COc3ccccn3)nn2CCN1CC1CC1 :: 47
Cc1nc(N2C(=O)c3cc(COc4ccccc4)nn3C[C@H]2C)ccc1F :: 68
CN(C)c1ccnc(N2CCn3nc(COc4ccccc4)cc3C2=O)c1 :: 64
COc1cc(N2CCn3nc(COc4ccccc4)cc3C2=O)nc(C)n1 :: 53

----------
Target: human mGluR5a receptor (Homo sapiens, UniProt P41594)
Construct: cDNA subcloned into pcDNA3.1(-)
Test: Cell-based functional Ca2+ mobilization assay (FDSS), potentiation of glutamate EC20 response
Settings: maximum % effect in concentration-response curve, as percent of response to maximally effective glutamate
test-readout: Emax (%)

COc1cc(N2CCn3nc(COc4ccccc4)cc3C2=O)nc(OC)n1 :: 61
Cc1cc(N2CCn3nc(COc4ccccc4)cc3C2=O)ccc1F :: 68
Cc1ccc(F)c(N2CCn3nc(COc4ccccc4)cc3C2=O)n1 :: 72

----------
Biological target: human mGluR5a receptor (Homo sapiens)
Construct: cDNA subcloned into pcDNA3.1(-)
Assay: Cell-based functional Ca2+ mobilization assay (FDSS), potentiation of glutamate EC20 response
Settings: HEK cells transfected with human mGluR5 (H10H or H12H); in presence of EC20 glutamate; read-out: EC50
test-readout: EC50 (nM)

Observe how each entry below is paired with its result.
COc1cc(N2CCn3nc(COc4ccccn4)cc3C2=O)ccc1F :: 407
Cc1ccc(N2CCn3nc(COc4ccccc4)cc3C2=O)c(C)n1 :: 310
O=C1c2cc(COc3ccccc3)nn2CCN1c1ccc2ncncc2c1 :: 1300
COc1cncnc1N1CCn2nc(COc3ccccc3)cc2C1=O :: 2000

[a] Cc1ccc2ccc(N3CCn4nc(COc5ccccc5)cc4C3=O)cc2n1
[b] CC(C)c1cccc(N2CCn3nc(COc4ccccn4)cc3C2=O)n1
[c] Cc1ccc(N2CCn3nc(COc4ccccc4)cc3C2=O)cc1
IN: Arrange these compounds by their EC50, starting with the largest number. // ordering of labels required in reply
OUT: b, a, c
(b: 437 nM, a: 230 nM, c: 81 nM)

----------
Biological target: human mGluR5a receptor (Homo sapiens)
Construct: cDNA subcloned into pcDNA3.1(-)
Assay: Cell-based functional Ca2+ mobilization assay (FDSS), potentiation of glutamate EC20 response
Details: HEK cells transfected with human mGluR5 (H10H or H12H); in presence of EC20 glutamate; read-out: EC50
pEC50: −log10 of the molar value.
test-readout: pEC50

Solved cases (5 shown):
O=C1c2cc(COc3ccccc3)nn2CC(CF)N1c1ccc(F)cc1 (stereo not drawn) [Example 266] :: 6.94
Cc1cc(N(C)C)nc(N2CCn3nc(COc4ccccc4)cc3C2=O)c1 :: 7.33
O=C1c2cc(COc3ccccn3)nn2CCN1CC1CC1 :: 5.60
O=C1c2cc(COc3ccccc3)nn2CCN1c1cccc(C2CC2)n1 :: 7.03
CN(C)c1ccnc(N2CCn3nc(COc4ccccc4)cc3C2=O)c1 :: 5.96

[a] COc1cc(C)nc(N2CCn3nc(COc4ccccc4)cc3C2=O)n1
[b] N#Cc1cccc(N2CCn3nc(COc4ccccc4)cc3C2=O)n1
IN: Return label of the item with the larger pEC50. Candidates: a , b . Returns: label corresponding to the selected item.
OUT: b
(b: 6.82, a: 6.19)

Values from patent US8592422B2
